This section presents compounds with their documented inhibition at 1 µg/mL values.
tgt: COX-2 (Mus musculus, UniProt Q05769)
Construct: endogenous in cells; host or cells: peritoneal macrophages of C57BL/6 mouse, aspirin-pretreated, LPS-induced
Sequence (Q05769 18-604): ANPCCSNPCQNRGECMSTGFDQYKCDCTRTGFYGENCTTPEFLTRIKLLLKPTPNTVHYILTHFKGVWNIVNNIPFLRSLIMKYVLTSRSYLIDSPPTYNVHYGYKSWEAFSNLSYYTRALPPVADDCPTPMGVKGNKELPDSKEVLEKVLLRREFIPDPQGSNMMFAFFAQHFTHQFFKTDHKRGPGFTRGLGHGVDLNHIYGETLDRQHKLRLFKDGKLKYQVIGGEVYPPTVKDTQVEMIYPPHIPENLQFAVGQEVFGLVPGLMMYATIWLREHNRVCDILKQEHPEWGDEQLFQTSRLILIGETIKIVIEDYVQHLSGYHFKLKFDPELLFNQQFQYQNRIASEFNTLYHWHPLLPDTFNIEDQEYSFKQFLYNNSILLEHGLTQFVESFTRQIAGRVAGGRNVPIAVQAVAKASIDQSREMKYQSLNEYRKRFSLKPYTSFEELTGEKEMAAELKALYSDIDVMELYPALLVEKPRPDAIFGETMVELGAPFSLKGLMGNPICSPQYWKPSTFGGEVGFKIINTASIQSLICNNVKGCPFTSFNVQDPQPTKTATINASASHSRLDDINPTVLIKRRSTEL
assay comment: Evaluation of COX-2's inhibition efficacy (PGE2 radioimmuno assay, LPS-induced, aspirin-pretreated peritoneal macrophages)
Format: cell-based, C57BL/6 mouse
settings: 1 μg/ml
reported metric: inhibition at 1 µg/mL (%)

structure | relation operator | number
Cc1cccc(-c2c(-c3ccc(S(C)(=O)=O)cc3)oc3ccccc3c2=O)c1 | = | 82
NS(=O)(=O)c1ccc(-c2oc3cc(F)ccc3c(=O)c2-c2cccc(F)c2)cc1 | = | 97
NS(=O)(=O)c1ccc(-c2oc3ccc(F)cc3c(=O)c2-c2ccccc2)cc1 | = | 86
NS(=O)(=O)c1ccc(-c2oc3ccccc3c(=O)c2-c2ccccc2)cc1 | = | 90
Cc1ccc(-c2c(-c3ccc(S(C)(=O)=O)cc3)oc3ccccc3c2=O)cn1 | < | 5
CS(=O)(=O)c1ccc(-c2oc3ccccc3c(=S)c2-c2cccc(Cl)c2)cc1 | = | 29
COc1ccc(-c2c(-c3ccc(S(C)(=O)=O)cc3)oc3ccccc3c2=O)cn1 | = | 51
NS(=O)(=O)c1ccc(-c2oc3ccc(F)cc3c(=S)c2-c2ccc(F)cc2)cc1 | = | 100
COc1ccc2c(=O)c(-c3ccc(F)cc3)c(-c3ccc(S(N)(=O)=O)cc3)oc2c1 | = | 52
NS(=O)(=O)c1ccc(-c2oc3ccccc3c(=O)c2-c2ccc(F)cc2)cc1 | = | 96

* * *

tgt: COX-1 (Mus musculus)
Construct: there is no pre-treatment of aspirin and LPS in the adhesion of macrophage; endogenous in cells; host or cells: peritoneal macrophages of C57BL/6 mouse, without aspirin and LPS pre-treatment
Sequence (P22437 27-602): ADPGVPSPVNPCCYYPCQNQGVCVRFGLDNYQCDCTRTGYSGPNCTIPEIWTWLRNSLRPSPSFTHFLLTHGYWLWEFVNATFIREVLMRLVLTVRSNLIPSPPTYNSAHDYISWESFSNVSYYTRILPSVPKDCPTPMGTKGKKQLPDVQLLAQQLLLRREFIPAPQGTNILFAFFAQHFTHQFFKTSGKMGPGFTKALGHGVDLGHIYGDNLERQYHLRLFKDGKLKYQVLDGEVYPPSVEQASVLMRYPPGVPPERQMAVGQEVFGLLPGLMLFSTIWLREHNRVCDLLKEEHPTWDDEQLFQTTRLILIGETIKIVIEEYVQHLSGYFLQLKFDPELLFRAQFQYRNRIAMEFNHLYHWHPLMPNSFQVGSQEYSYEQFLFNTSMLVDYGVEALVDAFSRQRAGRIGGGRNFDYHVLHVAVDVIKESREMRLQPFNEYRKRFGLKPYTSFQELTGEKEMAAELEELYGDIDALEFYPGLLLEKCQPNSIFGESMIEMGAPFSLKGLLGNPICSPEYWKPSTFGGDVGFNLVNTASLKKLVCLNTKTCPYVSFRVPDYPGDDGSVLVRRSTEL
assay comment: Evaluation of COX-1's inhibition efficacy (macrophages without aspirin and LPS pre-treatment)
Type: cell-based, C57BL/6 mouse
settings: 1 μg/ml
This section presents molecules with their documented inhibition at 1 µg/mL values.
reported metric: inhibition at 1 µg/mL

structure | tgt | result
COc1ccc(Cl)c2oc(-c3ccc(S(N)(=O)=O)cc3)c(-c3ccc(F)cc3)c(=O)c12 | COX-1 (Mus musculus) | 24%
NS(=O)(=O)c1ccc(-c2oc3ccccc3c(=O)c2-c2ccccc2F)cc1 | COX-1 (Mus musculus) | 34%
NS(=O)(=O)c1ccc(-c2oc3cc(F)ccc3c(=O)c2-c2ccc(Cl)c(Cl)c2)cc1 | COX-1 (Mus musculus) | 54%

* * *

System: edema in mouse's ear
assay comment: Depressant action on edema in mouse's ear (TPA-induced, myeloperoxidase)
Type: in vivo, ICR mouse
settings: topical on ear, TPA 25 μg, 5 hours
This section presents compounds with their documented depressant rate of ear edema, ED50 values.

compound | depressant rate of ear edema, ED50
COc1ccc2c(c1)c(CC(=O)O)c(C)n2C(=O)c1ccc(Cl)cc1 [indomethacine, reference compound] | 0.4 mg/ear, ED50
CS(=O)(=O)c1ccc(-c2oc3ccccc3c(=O)c2-c2ccc(Br)cc2)cc1 [Example 28] | 0.8 mg/ear, ED50
CS(=O)(=O)c1ccc(-c2oc3ccccc3c(=S)c2-c2ccc(F)cc2)cc1 [Example 36] | 1.0 mg/ear, ED50
CS(=O)(=O)c1ccc(-c2oc3ccccc3c(=O)c2-c2ccc(F)cc2)cc1 [Example 1] | 0.4 mg/ear, ED50

These entries and their values trace back to patent US6340694B1.
